Listing of entries alongside the reported GI50.
# Test system: K562
# protocol_description: NCI tumour cell line growth inhibition, 48 h
Activity calls are given as the source filed them. No stated cut-off is given here; in the data, active = GI50 up to about 1.1 µM and inactive = higher.

Example results:
* COC(=O)/C=C1/OC(c2ccccc2)=C(Cl)C1=O | 6.07 µM (inactive)
* C/C=C/COC(=O)CO[N+](=O)[O-] | > 100 µM (inactive)
* O=C(Cc1nc2ccccc2s1)C(=O)Nc1ccccc1C(F)(F)F | > 100 µM (inactive)
* O=S1(=O)C[C@H](NCc2ccccc2)[C@H](NCc2ccccc2)C1 | 54.5 µM (inactive)
* CN(C)CCCN1C(=S)N(CCCN(C)C)c2c3cc(O)ccc3nc3c([N+](=O)[O-])ccc1c23 | 2.14 µM (inactive)
* CCOC(=O)C1=C(C)N2CCOC2(C)C(C(=O)OC)C1c1cccc(Cl)c1 (centres undefined) | 81.5 µM (inactive)
* N#CCc1c(-c2ccccc2)n(S(=O)(=O)c2ccccc2)c2ccccc12 | 46.9 µM (inactive)
* O=c1c2ccccc2nc(N/N=C/c2ccc([N+](=O)[O-])cc2)n1-c1ccccc1 | 52.1 µM (inactive)
* O=C(NCc1cccs1)OC1CC2CCC1C2 (centres undefined) | > 100 µM (inactive)
* CCOc1ccc(/N=N/c2c(-c3ccccc3)nn(C(=O)CC(=O)Nc3ccccc3Cl)c2-c2ccccc2)cc1 | 30.2 µM (inactive)

Item: CC(C)(C)CC(C)(C)c1cc2c(O)c(c1)Cc1cc(C(C)(C)CC(C)(C)C)cc(c1O)Cc1cc(C(C)(C)CC(C)(C)C)cc(c1O)Cc1cc(C(C)(C)CC(C)(C)C)cc(c1O)C2 Test system: K562 Read-out: GI50 Value: ?
> 100 µM (inactive)

Item: CCOC(=O)C1NCCc2c1[nH]c1ccccc21 (centres undefined) Test system: K562 Read-out: GI50 Value: ?
> 10 µM (inactive)

Item: CC(=O)OC1CC2CC(=O)CC1N2C (centres undefined) Test system: K562 Read-out: GI50 Value: ?
> 100 µM (inactive)

---

# Tested on: IGROV-1
# protocol_description: NCI tumour cell line growth inhibition, 48 h
Activity calls are given as the source filed them. Rule as the data show it: active = GI50 up to about 1.1 µM and inactive = higher.
Assign a class; possible classes are 1 (yes) = active, 0 (no) = inactive

Study these solved cases before continuing.
- N=C(N)N/N=C/c1cc(Cl)cc(Cl)c1O: 0 (no)
- O=Cc1ccc(OC[C@H]2COC(=O)N2)cc1: 0 (no)
- NNC(=S)N/N=C(\CC1OC(=O)c2ccccc21)c1ccccc1O (stereo not drawn): 0 (no)
- CS(=O)(=O)OC1CCC2(C#N)CCC1C2=O (stereo not drawn): 0 (no)
- CCCCCC(=O)Nc1[nH]cnc1C(N)=O: 0 (no)
- Clc1ccc(C2N3CCCCC3[C@@H]3c4[nH]c5ccccc5c4CCN23)cc1 (stereo partly drawn): 0 (no)
- Cc1cc2c(cc1C)[n+]([O-])c(C(=O)C/C(=N/OCCCc1ccccc1)C(=O)Nc1cc(Cl)ccc1Cl)c(C)[n+]2[O-]: 0 (no)
- O=C1CC(c2c(-c3ccccc3)[nH]c3ccccc23)C(=O)N1c1ccccc1 (stereo not drawn): 0 (no)

Please turn your attention to the following entry.
Just curious, what result did O=C(N/N=C/C=C/c1ccc([N+](=O)[O-])o1)c1ccc(C(=O)N/N=C/C=C/c2ccc([N+](=O)[O-])o2)cc1 get here?
0 (no)

Reference source: ChEMBL document CHEMBL1201862
